Value source: patent US20220257597A1

Assay: Drug-drug interaction study: effect of multiple doses of elagolix sodium on pharmacokinetics of bupropion (CYP2B6 substrate) and OH-bupropion
Conditions: female, human, in vivo, 150 mg

compound: CC(NC(C)(C)C)C(=O)c1cccc(Cl)c1.Cl (racemic) [bupropion, reference compound]
Cmax: 89.5 ng/mL

----------
Here the recorded AUC(0-inf) is given for each entry.
Assay: Phase 1 open-label study: coadministration of combined oral contraceptive (EE+LNG) with elagolix sodium, pharmacokinetics, safety and tolerability
Assay type: in vivo, human
Conditions: female, human, in vivo, oral, Study Day 18: EE/LNG 0.02 mg/0.1 mg + elagolix 200 mg; read-out: AUCinf, Central Value Test

compound_smiles: C#C[C@]1(O)CC[C@H]2[C@@H]3CCc4cc(O)ccc4[C@H]3CC[C@@]21C
AUC(0-inf) [ng·h/mL]: 1.08
//
compound_smiles: C#C[C@]1(O)CC[C@H]2[C@@H]3CCC4=CC(=O)CC[C@@H]4[C@H]3CC[C@@]21CC
AUC(0-inf) [ng·h/mL]: 30.5

----------
Test: Phase 1 open-label study: coadministration of combined oral contraceptive (EE+LNG) with elagolix sodium, pharmacokinetics, safety and tolerability
Format: in vivo, human
Conditions: female, human, in vivo, oral, Study Day 1: EE/LNG 0.02 mg/0.1 mg; read-out: AUCinf, Central Value Reference
Protocol: Objective: To evaluate the effect of elagolix on the pharmacokinetics, safety, and tolerability of a single dose of a combined oral contraceptive (COC) containing EE and LNG in healthy premenopausal female subjects. […] [table] […] Diagnosis and Main Criteria for Inclusion: Subjects were premenopausal females, and age was between 18 and 49 years, inclusive. Test Product, Dose/Strength/Concentration, and Mode of Administration: […] EE/LNG 0.02 mg/0.1 mg tablet; All study drugs were administered orally. […]

compound: C#C[C@]1(O)CC[C@H]2[C@@H]3CCC4=CC(=O)CC[C@@H]4[C@H]3CC[C@@]21CC [levonorgestrel]
AUC(0-inf): 42.1 ng·h/mL

----------
Test: Elagolix apparent terminal phase elimination half-life
Settings: human, in vivo; read-out: apparent terminal phase elimination half-life (t1/2)

compound_smiles: COc1cccc(-c2c(C)n(Cc3c(F)cccc3C(F)(F)F)c(=O)n(C[C@H](NCCCC(=O)O)c3ccccc3)c2=O)c1F
half-life: 240 to 360 min

----------
Assay: Phase 1 open-label study: coadministration of combined oral contraceptive (EE+LNG) with elagolix sodium, pharmacokinetics, safety and tolerability
Assay type: in vivo, human
Conditions: female, human, in vivo, oral, Study Day 18: EE/LNG 0.02 mg/0.1 mg + elagolix 200 mg; read-out: Cmax, Central Value Test

compound_smiles: C#C[C@]1(O)CC[C@H]2[C@@H]3CCC4=CC(=O)CC[C@@H]4[C@H]3CC[C@@]21CC
Cmax (ng/mL): 2.54

----------
The entries below are paired with their reported AUC(0-t).
Assay: Phase 1 open-label study: coadministration of combined oral contraceptive (EE+LNG) with elagolix sodium, pharmacokinetics, safety and tolerability
Format: in vivo, human
Details: female, human, in vivo, oral, Study Day 1: EE/LNG 0.02 mg/0.1 mg; read-out: AUCt, Central Value Reference

compound: C#C[C@]1(O)CC[C@H]2[C@@H]3CCC4=CC(=O)CC[C@@H]4[C@H]3CC[C@@]21CC [levonorgestrel]
AUC(0-t) / µg·h/mL: 0.0311
//
compound: C#C[C@]1(O)CC[C@H]2[C@@H]3CCc4cc(O)ccc4[C@H]3CC[C@@]21C [ethinyl estradiol]
AUC(0-t) / µg·h/mL: 0.000437
